The origin of these recorded values is paper PMC7156458.

Some compounds, each annotated with its measured viability at 4 µM.
assay: cytotoxicity in Drosophila DL1 cells; type: cell-based; conditions: Drosophila, DL1 cells (embryonic macrophage-derived), DL1 cells, 4 µM, replicate 2, relative to DMSO 1%; read-out: % viability, viability 2

>  <compound>
C=C1CC[C@@H]2[C@](C)(CC[C@H]3O[C@H](C=C(C)C)C[C@@]23C)[C@@H]1Cc1c(O)c(C)c(C)oc1=O

>  <result-units>
%

>  <viability at 4 µM>
6.46

$$$$
>  <compound>
C=C1CC[C@@H]2[C@](C)(CC[C@H]3O[C@H](C=C(C)C)C[C@@]23C)[C@@H]1Cc1c(OC)oc(CO)c(C(=O)OC)c1=O

>  <result-units>
%

>  <viability at 4 µM>
3.41

$$$$
>  <compound>
C=C1CCC2C(C)(CCC=C(C)C)C(O)CCC2(C)C1Cc1c(OC)oc(C)c(C(=O)OC)c1=O (stereo not drawn)

>  <result-units>
%

>  <viability at 4 µM>
6.14

$$$$

---

assay: cytotoxicity in Drosophila DL1 cells; type: cell-based; conditions: Drosophila, DL1 cells (embryonic macrophage-derived), DL1 cells, 0.04 µM, replicate 1, relative to DMSO 1%; read-out: % viability, viability 1

>  <compound>
C=C1CCC2C(C)(CC(=O)C=C(C)C)C(O)CCC2(C)C1Cc1c(OC)oc(C)c(C)c1=O (stereo not shown)

>  <result-units>
%

>  <viability at 0.04 µM>
135

$$$$
>  <compound>
C=C1CCC2C3(C)CC(C=C(C)C)OC3CCC2(C)C1Cc1c(OC)oc(C)c(C)c1=O (stereo not shown)

>  <result-units>
%

>  <viability at 0.04 µM>
80.6

$$$$
>  <compound>
C=C1CCC2C(C)(CCC=C(C)C)C(O)CCC2(C)C1Cc1c(OC)oc(CO)c(C(=O)OC)c1=O (stereo not shown)

>  <result-units>
%

>  <viability at 0.04 µM>
100

$$$$
>  <compound>
C=C1CC[C@@H]2[C@](C)(CC[C@H]3O[C@H](C=C(C)C)C[C@@]23C)[C@@H]1Cc1c(OC)oc(CO)c(C(=O)OC)c1=O

>  <result-units>
%

>  <viability at 0.04 µM>
5.78

$$$$

---

target: Aβ42 (Homo sapiens, UniProt P05067); test: Th-T (thioflavin-T) assay of Aβ42 aggregation; format: biochemical; settings: column suffix _10; reading M89
Sequence (P05067 672-713): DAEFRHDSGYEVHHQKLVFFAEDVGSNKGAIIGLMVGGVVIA
Rule: Fig. 7a Th-T reading, mean of three wells of 3 or more gives T; anything lower gives F.

>  <compound>
C=C1CCC2C(C)(CCC=C(C)C)C(O)CCC2(C)C1Cc1c(OC)oc(CO)c(C(=O)OC)c1=O (centres unmarked) [Compound 13]

>  <assigned-category>
F

$$$$
>  <compound>
C=C1CCC2C(C)(CCC=C(C)C)C(O)CCC2(C)C1Cc1c(OC)oc(C)c(C(=O)OC)c1=O (centres unmarked) [Compound 14]

>  <assigned-category>
F

$$$$
>  <compound>
C=C1CC[C@@H]2[C@](C)(CC[C@H]3O[C@H](C=C(C)C)C[C@@]23C)[C@@H]1Cc1c(OC)oc(CO)c(C)c1=O [Compound 20]

>  <assigned-category>
T

$$$$
>  <compound>
C=C1CC[C@@H]2[C@](C)(CC[C@H]3O[C@H](C=C(C)C)C[C@@]23C)[C@@H]1Cc1c(OC)oc(CO)c(C(=O)OC)c1=O [Compound 21]

>  <assigned-category>
F

$$$$

---

molecular target: UniProtKB P05067; experiment: Th-T (thioflavin-T) assay of Aβ42 aggregation; assay type: biochemical; conditions: compound at 20; reading M56 of time course
The label depends only on Th-T fluorescence, mean of three wells: Criterion met if it is at least 2, Criterion not met if it is smaller.

>  <molecule>
C=C1CCC2C(C)(CCC=C(C)C)C(O)CCC2(C)C1Cc1c(OC)oc(CO)c(C)c1=O (centres unmarked) [Compound 12]

>  <assigned-category>
Criterion met

$$$$
>  <molecule>
C=C1CC[C@@H]2[C@](C)(CC[C@H]3O[C@H](C=C(C)C)C[C@@]23C)[C@@H]1Cc1c(OC)oc(CO)c(C(=O)OC)c1=O [Compound 21]

>  <assigned-category>
Criterion not met

$$$$
>  <molecule>
C=C1CC[C@@H]2[C@](C)(CC[C@H]3O[C@H](C=C(C)C)C[C@@]23C)[C@@H]1Cc1c(OC)oc(CO)c(C)c1=O [Compound 20]

>  <assigned-category>
Criterion met

$$$$
>  <molecule>
C=C1CCC2C(C)(CCC=C(C)C)C(O)CCC2(C)C1Cc1c(OC)oc(C)c(C(=O)OC)c1=O (centres unmarked) [Compound 14]

>  <assigned-category>
Criterion met

$$$$
>  <molecule>
C=C1CCC2C(C)(CCC=C(C)C)C(O)CCC2(C)C1Cc1c(OC)oc(CO)c(C(=O)OC)c1=O (centres unmarked) [Compound 13]

>  <assigned-category>
Criterion not met

$$$$

---

target: Aβ42 (Homo sapiens, UniProt P05067); assay: Th-T (thioflavin-T) assay of Aβ42 aggregation; type: biochemical; details: reading M122; compound at 20 (head suffix _20)
Assign T to entries whose Th-T fluorescence, mean of three wells (Fig. 7a) meets or exceeds 2; assign F to the rest.

>  <compound>
C=C1CC[C@@H]2[C@](C)(CC[C@H]3O[C@H](C=C(C)C)C[C@@]23C)[C@@H]1Cc1c(OC)oc(CO)c(C)c1=O

>  <subject-of-test>
Aβ42 (Homo sapiens, UniProt P05067)

>  <assigned-category>
T

$$$$
>  <compound>
C=C1CCC2C(C)(CCC=C(C)C)C(O)CCC2(C)C1Cc1c(OC)oc(CO)c(C(=O)OC)c1=O (centres unmarked)

>  <subject-of-test>
Aβ42 (Homo sapiens, UniProt P05067)

>  <assigned-category>
F

$$$$
>  <compound>
C=C1CCC2C(C)(CCC=C(C)C)C(O)CCC2(C)C1Cc1c(OC)oc(CO)c(C)c1=O (centres unmarked)

>  <subject-of-test>
Aβ42 (Homo sapiens, UniProt P05067)

>  <assigned-category>
T

$$$$
>  <compound>
C=C1CC[C@@H]2[C@](C)(CC[C@H]3O[C@H](C=C(C)C)C[C@@]23C)[C@@H]1Cc1c(OC)oc(CO)c(C(=O)OC)c1=O

>  <subject-of-test>
Aβ42 (Homo sapiens, UniProt P05067)

>  <assigned-category>
F

$$$$
>  <compound>
C=C1CCC2C(C)(CCC=C(C)C)C(O)CCC2(C)C1Cc1c(OC)oc(C)c(C(=O)OC)c1=O (centres unmarked)

>  <subject-of-test>
Aβ42 (Homo sapiens, UniProt P05067)

>  <assigned-category>
F

$$$$

---

molecular target: Aβ42 (Homo sapiens, UniProt P05067); test: Th-T (thioflavin-T) assay of Aβ42 aggregation; type: biochemical; settings: Aβ42 aggregation time course, reading M122
Short version: Th-T fluorescence, mean of three wells at least 3 is true (1), less is false (0).

>  <compound>
C=C1CC[C@@H]2[C@](C)(CC[C@H]3O[C@H](C=C(C)C)C[C@@]23C)[C@@H]1Cc1c(OC)oc(CO)c(C)c1=O

>  <assigned-category>
true (1)

$$$$
>  <compound>
C=C1CCC2C(C)(CCC=C(C)C)C(O)CCC2(C)C1Cc1c(O)c(C)c(C)oc1=O (stereo not drawn) [Compound 9, higginsianin B]

>  <assigned-category>
false (0)

$$$$
>  <compound>
C=C1CC[C@@H]2[C@](C)(CC[C@H]3O[C@H](C=C(C)C)C[C@@]23C)[C@@H]1Cc1c(OC)oc(CO)c(C(=O)OC)c1=O

>  <assigned-category>
false (0)

$$$$
>  <compound>
C=C1CCC2C(C)(CCC=C(C)C)C(O)CCC2(C)C1Cc1c(OC)oc(C)c(C)c1=O (stereo not drawn) [Compound 15, viridoxin A hydrolysate]

>  <assigned-category>
true (1)

$$$$
>  <compound>
C=C1CCC2C(C)(CCC=C(C)C)C(=O)CCC2(C)C1Cc1c(O)c(C)c(C)oc1=O (stereo not drawn)

>  <assigned-category>
false (0)

$$$$
>  <compound>
C=C1CC[C@H]2[C@]3(C)C[C@@H](C=C(C)C)O[C@H]3CC[C@]2(C)[C@@H]1Cc1c(OC)oc(CO)c(C)c1=O

>  <assigned-category>
true (1)

$$$$
>  <compound>
C=C1CC[C@H]2[C@]3(C)C[C@H](C=C(C)C)O[C@H]3CC[C@]2(C)[C@@H]1Cc1c(OC)oc(CO)c(C)c1=O

>  <assigned-category>
true (1)

$$$$
>  <compound>
C=C1CCC2C(C)(CCC=C(C)C)C(O)CCC2(C)C1Cc1c(O)c(C)c(C)oc1=O (stereo not drawn) [Compound 4]

>  <assigned-category>
false (0)

$$$$
>  <compound>
C=C1CCC2C(C)(CC(=O)C=C(C)C)C(O)CCC2(C)C1Cc1c(OC)oc(C)c(C)c1=O (stereo not drawn)

>  <assigned-category>
true (1)

$$$$
>  <compound>
C=C1CCC2C(C)(CC(=O)C=C(C)C)C(O)CCC2(C)C1Cc1c(OC)oc(CO)c(C)c1=O (stereo not drawn)

>  <assigned-category>
true (1)

$$$$
>  <compound>
C=C1CCC2C(C)(CC(=O)C=C(C)C)C(O)CCC2(C)C1Cc1c(O)c(C)c(C)oc1=O (stereo not drawn)

>  <assigned-category>
true (1)

$$$$
>  <compound>
C=C1CCC2C(C)(CCC=C(C)C)C(O)CCC2(C)C1Cc1c(OC)oc(CO)c(C(=O)OC)c1=O (stereo not drawn)

>  <assigned-category>
false (0)

$$$$
>  <compound>
C=C1CCC2C3(C)CC(C=C(C)C)OC3CCC2(C)C1Cc1c(OC)oc(C)c(C)c1=O (stereo not drawn)

>  <assigned-category>
true (1)

$$$$
>  <compound>
C=C1CCC2C(C)(CCC=C(C)C)C(O)CCC2(C)C1Cc1c(OC)oc(C)c(C)c1=O (stereo not drawn) [Compound 11]

>  <assigned-category>
true (1)

$$$$
